biological target: human Y4 receptor (human, UniProt P50391 1-375); experiment: 125I-PP displacement
Sequence (P50391 whole entry): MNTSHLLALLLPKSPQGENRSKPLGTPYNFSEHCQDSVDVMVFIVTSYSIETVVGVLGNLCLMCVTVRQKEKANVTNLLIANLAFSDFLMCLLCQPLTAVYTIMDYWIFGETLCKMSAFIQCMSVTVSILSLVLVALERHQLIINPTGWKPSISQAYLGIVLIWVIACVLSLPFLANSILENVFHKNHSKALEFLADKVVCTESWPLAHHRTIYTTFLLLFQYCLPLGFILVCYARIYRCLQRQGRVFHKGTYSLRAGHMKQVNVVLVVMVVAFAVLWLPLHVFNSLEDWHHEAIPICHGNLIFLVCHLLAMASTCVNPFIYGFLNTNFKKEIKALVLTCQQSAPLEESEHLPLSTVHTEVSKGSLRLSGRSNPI
readout: pIC50
Formally, pIC50 is defined as -log10 of the concentration c, with c in mol/L.

Below: 5 binders and their reported pIC50.
[
  {
    "binder": "YAPLEPEYPGDDATPQQKARYAAELRRYIDKLTRPRY [4060682]",
    "pIC50": 9.88
  },
  {
    "binder": "AAPLEPTAPGDNATPEQMARYAAALRRYINKLTRPRY [4060694]",
    "pIC50": 10.10
  },
  {
    "binder": "GAPLEPEYPGDNATPEQMARYAAALRRYINHLTRPRY [4060358]",
    "pIC50": 10.10
  },
  {
    "binder": "GAPLEPTYPGDNATPEQLAKYYSELRRYINKLTRPRF [4060283]",
    "pIC50": 10.14
  },
  {
    "binder": "PAPLEPKYPGDNATPEQLAKYYSELRRYIDKLTRPRY [4060605]",
    "pIC50": 9.85
  }
]

Now look at this entry.
*Q* pIC50 for PAPLEPEYPGDNATPEQKAKYAAALRRYINRLTRPRY [4060278] ?
*A* 10.21
